biological target: Intercellular adhesion molecule (ICAM-1), Integrin alpha-L/beta-2 (Homo sapiens, UniProt P05107+P05362+P20701); test: Antagonist activity at LFA-1/ICAM-1 in human HuT-78 T-cells assessed as inhibition of cell adhesion after 1 hr by p-nitrophenyl n-acetyl-beta-D-glucosaminide method in presence of 10% human serum; type: functional, cell-based, HuT78
Sequence (P20701 whole entry): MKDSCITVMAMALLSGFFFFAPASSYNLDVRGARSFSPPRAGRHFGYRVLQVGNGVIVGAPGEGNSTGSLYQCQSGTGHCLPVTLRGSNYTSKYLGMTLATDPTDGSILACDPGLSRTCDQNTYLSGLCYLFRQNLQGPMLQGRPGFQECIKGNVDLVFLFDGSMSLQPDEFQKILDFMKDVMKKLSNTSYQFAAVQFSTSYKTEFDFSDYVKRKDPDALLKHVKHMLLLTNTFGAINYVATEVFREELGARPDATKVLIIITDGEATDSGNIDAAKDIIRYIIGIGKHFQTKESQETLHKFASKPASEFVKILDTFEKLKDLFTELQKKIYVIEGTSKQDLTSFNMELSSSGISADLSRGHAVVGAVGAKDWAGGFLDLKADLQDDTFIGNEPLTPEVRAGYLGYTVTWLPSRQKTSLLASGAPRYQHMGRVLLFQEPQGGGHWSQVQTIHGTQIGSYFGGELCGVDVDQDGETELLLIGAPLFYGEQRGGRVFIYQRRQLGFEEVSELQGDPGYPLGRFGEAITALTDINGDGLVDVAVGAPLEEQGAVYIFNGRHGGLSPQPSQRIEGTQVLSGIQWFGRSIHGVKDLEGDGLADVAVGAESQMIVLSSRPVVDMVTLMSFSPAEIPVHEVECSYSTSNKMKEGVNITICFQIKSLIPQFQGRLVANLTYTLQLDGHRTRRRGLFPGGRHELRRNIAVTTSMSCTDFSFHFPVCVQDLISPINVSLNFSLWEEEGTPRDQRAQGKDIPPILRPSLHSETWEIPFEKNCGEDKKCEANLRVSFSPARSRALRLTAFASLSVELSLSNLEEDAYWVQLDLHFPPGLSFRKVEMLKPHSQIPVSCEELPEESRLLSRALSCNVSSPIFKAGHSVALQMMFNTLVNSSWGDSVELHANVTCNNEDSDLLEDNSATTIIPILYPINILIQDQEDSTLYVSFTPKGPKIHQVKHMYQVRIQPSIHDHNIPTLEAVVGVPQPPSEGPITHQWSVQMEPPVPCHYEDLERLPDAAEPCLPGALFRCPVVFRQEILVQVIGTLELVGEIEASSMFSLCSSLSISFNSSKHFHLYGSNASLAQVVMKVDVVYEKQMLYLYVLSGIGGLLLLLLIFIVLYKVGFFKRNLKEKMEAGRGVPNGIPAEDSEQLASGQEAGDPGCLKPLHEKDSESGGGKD
Sequence (P05362 whole entry): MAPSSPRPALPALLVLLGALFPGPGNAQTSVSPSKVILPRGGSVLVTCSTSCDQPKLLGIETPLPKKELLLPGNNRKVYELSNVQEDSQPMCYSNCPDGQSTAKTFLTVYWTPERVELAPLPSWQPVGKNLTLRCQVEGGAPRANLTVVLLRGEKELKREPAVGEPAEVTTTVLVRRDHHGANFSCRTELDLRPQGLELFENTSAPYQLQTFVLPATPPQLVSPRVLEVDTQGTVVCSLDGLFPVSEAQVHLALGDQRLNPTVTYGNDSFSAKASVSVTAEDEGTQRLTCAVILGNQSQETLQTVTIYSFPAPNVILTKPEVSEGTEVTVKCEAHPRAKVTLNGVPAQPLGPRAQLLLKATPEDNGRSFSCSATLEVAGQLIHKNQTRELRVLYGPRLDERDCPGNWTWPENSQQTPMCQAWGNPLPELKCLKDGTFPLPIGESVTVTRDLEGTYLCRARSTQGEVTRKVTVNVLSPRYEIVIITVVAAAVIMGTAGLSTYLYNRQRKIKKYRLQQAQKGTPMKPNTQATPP
Sequence (P05107 whole entry): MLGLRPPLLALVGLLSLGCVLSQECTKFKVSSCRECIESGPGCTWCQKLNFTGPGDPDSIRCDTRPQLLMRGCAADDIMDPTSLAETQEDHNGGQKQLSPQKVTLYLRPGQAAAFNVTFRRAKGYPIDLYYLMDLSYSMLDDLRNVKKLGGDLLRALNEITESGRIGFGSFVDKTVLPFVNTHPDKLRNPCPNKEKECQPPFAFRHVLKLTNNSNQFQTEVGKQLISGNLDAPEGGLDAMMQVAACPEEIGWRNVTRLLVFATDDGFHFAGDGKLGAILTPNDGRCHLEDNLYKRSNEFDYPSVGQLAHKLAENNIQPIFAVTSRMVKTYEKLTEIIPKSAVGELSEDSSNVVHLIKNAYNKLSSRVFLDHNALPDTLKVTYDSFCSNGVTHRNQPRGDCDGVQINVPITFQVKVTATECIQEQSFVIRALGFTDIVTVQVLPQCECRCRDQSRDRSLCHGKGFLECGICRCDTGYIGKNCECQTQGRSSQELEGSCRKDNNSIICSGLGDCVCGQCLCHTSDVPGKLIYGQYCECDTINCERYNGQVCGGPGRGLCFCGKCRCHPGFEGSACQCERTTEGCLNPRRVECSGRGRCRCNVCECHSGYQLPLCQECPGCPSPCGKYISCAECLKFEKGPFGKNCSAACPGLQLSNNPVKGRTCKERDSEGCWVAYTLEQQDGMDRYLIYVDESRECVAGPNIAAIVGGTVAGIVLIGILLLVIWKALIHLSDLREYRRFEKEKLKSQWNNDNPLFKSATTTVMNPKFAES
QUANTITY_MEASURED: IC50 (µM)

Examples from the recorded data:
Item: CS(=O)(=O)c1cncc(C[C@H](NC(=O)c2c(Cl)cc3c(c2Cl)CCN(C(=O)c2ccc4ccoc4c2)C3)C(=O)O)c1 | IC50: 0.032

Item: CS(=O)(=O)c1cccc(C[C@H](NC(=O)c2c(Cl)cc3c(c2Cl)CCN(C(=O)c2ccc(Cl)cc2)C3)C(=O)O)c1 | IC50: 0.2

Item: CS(=O)(=O)c1ccc(C[C@H](NC(=O)c2c(Cl)cc3c(c2Cl)CCN(C(=O)c2ccc(Cl)cc2)C3)C(=O)O)o1 | IC50: 0.24

[I] CCS(=O)(=O)c1cccc(C[C@H](NC(=O)c2c(Cl)cc3c(c2Cl)CCN(C(=O)c2ccc4ccoc4c2)C3)C(=O)O)c1
[II] CS(=O)(=O)c1cc(C[C@H](NC(=O)c2c(Cl)cc3c(c2Cl)CCN(C(=O)c2ccc4ccoc4c2)C3)C(=O)O)ccc1Cl
Of the two listed items, I and II , which carries the larger IC50 figure? Lab note: record the label of whichever item you select.
II
(II: 2 µM, I: 0.18 µM)
